# System: HT29 colon
# assay_procedure: NCI tumour cell line growth inhibition, 48 h
reported_endpoint: TGI

Request: Quick check: TGI on HT29 colon, item CC(=O)Nc1nc(Cl)cc(NCC2(CO)CCC2)n1 ?
Response: > 100 µM

Request: Query TGI on HT29 colon for Nc1ncnc2c1nnn2C1C=CC(CP(=O)(O)O)C1 (centres undefined)
Response: > 100 µM

Request: Record O=C(NCc1ccccc1)c1cc2ccccc2oc1=Nc1cccc(C(F)(F)F)c1 : what is its TGI with HT29 colon?
Response: > 100 µM

Request: Provide the documented TGI with HT29 colon as the system for CC(C)(CO)CNC(=O)c1ccc2[nH]c(O)c(N=Nc3ccc(S(N)(=O)=O)cc3)c2c1
Response: > 25 µM
